system: purple nutsedge; assay: Test B pre/postemergence purple nutsedge; type: in vivo, Cyperus rotundus; conditions: Rate 500 g/ha, Postemergence; scale 0 to 10, 0 no effect, 10 complete control
Catalogue of compounds with associated Nutsedge plant response rating
readout_name: Nutsedge plant response rating

1) Cc1cccc(Cl)c1-n1c(=O)on(C(=O)N(c2ccc(F)cc2)C(C)C)c1=O; 0
2) CCCn1c(=O)on(C(=O)N(c2ccc(F)cc2)C(C)C)c1=O; 0
3) CCn1c(=O)on(C(=O)N(c2ccccc2)C(C)C)c1=O; 7
4) COc1cc(C)cc(C)c1-n1c(=O)on(C(=O)N(c2ccc(F)cc2F)C(C)C)c1=O; 0
